- Tested on: MOLT-4 leukemia
- Assay Remarks: NCI tumour cell line growth inhibition, 48 h
Here, each record is paired with measured TGI data.
Just the number please, in µM, no unit attached.

{"Chemical Smiles": "OCCN1CCCN(CCCN2c3ccccc3Sc3ccc(C(F)(F)F)cc32)CC1", "Tested On": "MOLT-4 leukemia", "Reported Measurement": 5.2}

Need TGI of CCN(CCCl)c1cc(CN(C)C)cc(NC(=O)c2ccc(C(=O)Nc3cccc(N(CCCl)NN)c3)cc2)c1 , thanks.
0.0285

###

- System: M14 melanoma
- Assay Remarks: NCI tumour cell line growth inhibition, 48 h
Quick reference: TGI of the listed items.

Which TGI value is on record for COC1=C(OC)C(=O)C(Cc2c(-c3ccccc3)nc3sc(Cl)cn23)=C(C)C1=O ?
33.7 µM

Which TGI reading was recorded for the molecule Cc1cccc(NC(=O)CSc2nnc(-c3ccc(N=Cc4ccc(Cl)cc4)cc3)o2)c1 ?
> 100 µM

// returns reported TGI for input CC(C)(C)OC(=O)CC(S(=O)(=O)c1ccccc1)S(=O)(=O)c1ccccc1
22.7 µM

Please report the recorded TGI for COc1ccc([C@H]2c3[nH]c4ccccc4c3C[C@H]3C(=O)N(CCCCCCC(=O)NO)CC(=O)N23)cc1 .
> 33.3 µM

Name the reported TGI value associated with the molecule CSC1=C(C)C(/C=N/Nc2ccc([N+](=O)[O-])cc2)=C(C)N(c2ccccc2)S1(=O)=O
> 100 µM

What value of measured TGI is listed for CCOc1ccc(Nc2nc(N)nc(N)c2N=O)cc1 ?
> 100 µM

Quick one: TGI for c1ccc2c(c1)ccc1cc3cc(NCCCCNc4ccc5nc6c(ccc7ccccc76)cc5c4)ccc3nc12 ?
3.29 µM

Endpoint output: TGI of CN(C)CCC(/C=C/c1ccccc1)=N\Nc1c(F)c(F)c(F)c(F)c1F . Value?
> 100 µM

Any idea what TGI was measured for CC1(C)O[C@@H](CCl)C[C@@H](C#N)O1 ?
> 100 µM

Which measured TGI value corresponds to CCOc1ccc(N=Nc2c(-c3ccccc3)nn(C(=O)CC(=O)Nc3ccccc3Cl)c2-c2ccccc2)cc1 ?
> 100 µM

###

- Test system: IGROV1 ovarian
- Assay Remarks: NCI tumour cell line growth inhibition, 48 h
Below is a list of entries, each paired with its recorded TGI value.
Give a bare numeral; the unit µM is implied.

Reference set (3 entries):
{"Compound": "CCCCCCC1CCCCN1C(c1ccccc1)C(O)c1ccccc1 (stereo not given)", "Reported Measurement": 22}
{"Compound": "O=C(Cc1csc2nc(-c3ccc(Br)cc3)cn12)N/N=C/c1ccccc1O", "Reported Measurement": 11.5}
{"Compound": "COc1ccc(C=C2C(C)=NN(c3cccc(Cl)c3)C23C(Cl)C(=O)N3c2nc3ccccc3s2)cc1 (stereo not given)", "Reported Measurement": 40.1}

What does the data say about its TGI? Entry: Cc1ncc([N+](=O)[O-])n1CCOc1ccc(C(=O)/C=C/c2ccc(C(F)(F)F)cc2)cc1
4.13

Which measured TGI value corresponds to COc1ccc2c3c(c4cc(OC)c(OC)cc4c2c1)CN1CCC[C@H]1[C@@H]3O ?
0.326

Please report the recorded TGI for Cc1cc(C)n(C(=CC(=O)C(Cl)Cl)n2nc(C)cc2C)n1 .
30.4

// returns reported TGI for input CCOC1OC(C)(C=C(C#N)C#N)CCC1C (stereo not given)
36.8

Which TGI reading was recorded for the compound CCCC/C=C1/CCC(CN(C)C)C1=O (stereo not given) ?
10.1

Endpoint output: TGI of COc1cc(-c2cc(OC)c(OC)c3ccc(Br)cc23)c2cc(Br)ccc2c1OC . Value?
85.3
